# MEASUREMENT PROTOCOL: Aqueous solubility of Compound I
# Type: physicochemical
# CONDITIONS USED: water
MEASUREMENT KIND: solubility

Field request: solubility | item: C[C@H](NC(=O)C(C)(C)Oc1ccc(C(F)(F)F)cn1)[C@@H](Cc1ccc(Cl)cc1)c1cccc(C#N)c1
< 0.4 µg/mL

###

# MEASUREMENT PROTOCOL: Solubility of Compound I anhydrous Polymorph B in various liquid vehicles (suspension equilibrated at least 24 hours, filtered, HPLC)
# Type: physicochemical
# CONDITIONS USED: aqueous with cosolvent or surfactant or cyclodextrin, thermodynamic from solid, 0.5% Tween80, 95.5% Saline, room temperature
MEASUREMENT KIND: solubility (µg/mL)
Answers are plain numbers, in µg/mL.

Field request: solubility | item: C[C@H](NC(=O)C(C)(C)Oc1ccc(C(F)(F)F)cn1)[C@@H](Cc1ccc(Cl)cc1)c1cccc(C#N)c1
80
